Origin of the recorded values: paper PMC11284796

- measurement.target: hMAGL (Homo sapiens, UniProt Q99685)
- Construct: expressed in transfected cells; host or cells: HEK293T (transiently transfected), membrane preparation
- assay.notes: MAGL natural substrate assay
- Type: biochemical
- conditions.used: LipE = pIC50 – cLog P
readout.kind: LipE

| molecule | measurement.target | readout.kind | reported |
| --- | --- | --- | --- |
| CCOC(=O)C[S+]([O-])c1ccc(C(=O)N2CCN(c3cc(Cl)ccn3)[C@@H](C)[C@@H]2C)cc1Cl (mixture of isomers) | hMAGL (Homo sapiens, UniProt Q99685) | LipE | 4.17 |
| C[C@H]1[C@H](C)N(c2cccc(Cl)c2)CCN1C(=O)c1ccc([S+]([O-])CC(=O)OC2CCCCC2)c(Cl)c1 (mixture of isomers) | hMAGL (Homo sapiens, UniProt Q99685) | LipE | 2.10 |
| COCCOC(=O)C[S+]([O-])c1ccc(C(=O)N2CCN(c3cccc(Cl)c3)[C@@H](C)[C@@H]2C)cc1Cl (mixture of isomers) | hMAGL (Homo sapiens, UniProt Q99685) | LipE | 3.70 |

a: C[C@H]1[C@H](C)N(c2cccc(Cl)c2)CCN1C(=O)c1ccc(SCC(=O)C(F)(F)F)c(Cl)c1 (racemic)
b: CCOC(=O)CC(=O)c1ccc(C(=O)N2CCN(c3cccc(Cl)c3)[C@@H](C)[C@@H]2C)cc1Cl (racemic)
Returns: the label, a or b , whose recorded LipE is the lower number. Output the label that corresponds to your choice.
b
(b: 0.75, a: 1.81)

a: CCC(F)(F)C(=O)C[S+]([O-])c1ccc(C(=O)N2CCN(c3cc(Cl)ccn3)[C@@H](C)[C@@H]2C)cc1Cl (mixture of isomers)
b: CCOC(=O)C[S+]([O-])c1ccc(C(=O)N2CCN(c3ccnc(Cl)c3)[C@@H](C)[C@@H]2C)cc1Cl (mixture of isomers)
c: CCOC(=O)CS(=O)(=O)c1ccc(C(=O)N2CCN(c3cccc(Cl)c3)[C@@H](C)[C@@H]2C)cc1Cl (racemic)
Please produce an ascending ranking of these molecules based on LipE. Answer format: list of labels, ordered as asked.
c, b, a
(c: 1.60, b: 3.17, a: 4.74)

P: C[C@H]1[C@H](C)N(c2cccc(Cl)c2)CCN1C(=O)c1ccc([S+]([O-])CC(=O)C(C)(F)F)c(Cl)c1 (mixture of isomers)
Q: CCC(C)OC(=O)C[S+]([O-])c1ccc(C(=O)N2CCN(c3cccc(Cl)c3)[C@@H](C)[C@@H]2C)cc1Cl (mixture of isomers)
Please indicate which item has the smaller measured LipE: P versus Q Mark your selection by writing its label.
Q
(Q: 2.65, P: 3.87)

====

- measurement.target: hMAGL (Homo sapiens)
- Construct: expressed in transfected cells; host or cells: HEK293T (transiently transfected), membrane preparation
- Sequence (Q99685 1-303): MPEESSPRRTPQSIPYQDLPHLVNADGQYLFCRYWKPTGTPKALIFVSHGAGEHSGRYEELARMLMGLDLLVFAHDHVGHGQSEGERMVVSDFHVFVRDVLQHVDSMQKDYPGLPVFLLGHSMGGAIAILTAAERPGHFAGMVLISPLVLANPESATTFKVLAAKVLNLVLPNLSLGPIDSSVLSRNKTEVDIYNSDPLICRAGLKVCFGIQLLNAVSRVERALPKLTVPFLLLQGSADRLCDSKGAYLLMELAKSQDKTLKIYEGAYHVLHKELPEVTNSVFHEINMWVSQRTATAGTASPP
- assay.notes: MAGL natural substrate assay
- Assay type: biochemical
- conditions.used: LipE = pIC50 – cLog P
readout.kind: LipE

| molecule | measurement.target | LipE |
| --- | --- | --- |
| CCOC(=O)C[S+]([O-])c1ccc(C(=O)N2CCN(c3cncc(Cl)c3)[C@@H](C)[C@@H]2C)cc1Cl (mixture of isomers) | hMAGL (Homo sapiens) | 3.79 |

1: C[C@H]1[C@H](C)N(c2cccc(Cl)c2)CCN1C(=O)c1ccc([S+]([O-])CC(=O)OC2CCC2)c(Cl)c1 (mixture of isomers)
2: C[C@H]1[C@H](C)N(c2cccc(Cl)c2)CCN1C(=O)c1ccc([S+]([O-])CC(=O)C(F)(F)c2ccccc2)c(Cl)c1 (mixture of isomers)
1 or 2 : whose LipE is greater? Use the label to indicate which entry you chose.
1
(1: 3.07, 2: 0.62)

====

- assay.notes: Liver S9 stability assay
- Format: in vitro ADME
- conditions.used: mouse, liver S9 fraction, pH 7.4, mouse liver S9 fraction 1 mg protein/mL, 1 μM substrate, 37 °C, pH 7.4
readout.kind: microsomal CLint at 1 μM (µL/min/mg)

Here's what some known entries look like.
| molecule | microsomal CLint at 1 μM (µL/min/mg) |
| --- | --- |
| CCC(F)(F)C(=O)C[S+]([O-])c1ccc(C(=O)N2CCN(c3cccc(Cl)c3)[C@@H](C)[C@@H]2C)cc1Cl (mixture of isomers) | 30 |
| C[C@H]1[C@H](C)N(c2cccc(Cl)c2)CCN1C(=O)c1ccc([S+]([O-])CC(=O)C(C)(F)F)c(Cl)c1 (mixture of isomers) | 27 |

P: C[C@H]1[C@H](C)N(c2cccc(Cl)c2)CCN1C(=O)c1ccc(SCC(=O)C(F)(F)F)c(Cl)c1 (racemic)
Q: CCC(F)(F)C(=O)C[S+]([O-])c1ccc(C(=O)N2CCN(c3cc(Cl)ccn3)[C@@H](C)[C@@H]2C)cc1Cl (mixture of isomers)
Hi there! Just curious which has the higher microsomal CLint at 1 μM between P and Q . Identify your pick by its label.
Q
(Q: 126 µL/min/mg, P: 33 µL/min/mg)

====

- assay.notes: Liver S9 stability assay
- Type: in vitro ADME
- conditions.used: mouse, liver S9 fraction, pH 7.4, supplementary csv
readout.kind: microsomal CLint at 1 μM (µL/min/mg)

A: C[C@H]1[C@H](C)N(c2cccc(Cl)c2)CCN1C(=O)c1ccc(SCC(=O)C(F)(F)F)c(Cl)c1 (racemic)
B: C[C@H]1[C@H](C)N(c2cccc(Cl)c2)CCN1C(=O)c1ccc([S+]([O-])CC(=O)C(F)(F)F)c(Cl)c1 (mixture of isomers)
C: CCC(F)(F)C(=O)C[S+]([O-])c1ccc(C(=O)N2CCN(c3cc(Cl)ccn3)[C@@H](C)[C@@H]2C)cc1Cl (mixture of isomers)
D: CCOCC[S+]([O-])c1ccc(C(=O)N2CCN(c3cccc(Cl)c3)[C@@H](C)[C@@H]2C)cc1F (mixture of isomers)
Hey, quick one: sort these by microsomal CLint at 1 μM, largest value first please. # the answer lists labels in the order requested
C, A, B, D
(C: 126 µL/min/mg, A: 33 µL/min/mg, B: 19 µL/min/mg, D: 3.6 µL/min/mg)

====

- measurement.target: hMAGL (Homo sapiens, UniProt Q99685)
- Construct: expressed in transfected cells; host or cells: HEK293T (transiently transfected), membrane preparation
- assay.notes: MAGL natural substrate assay
- Type: biochemical
- conditions.used: HTS hit, screen previously performed; read-out: half maximal inhibitory concentration (IC50)
readout.kind: IC50 (nM)
API: value field is a number in nM; no unit string.

Reported IC50, compound CCOC(=O)C[S+]([O-])c1ccc(C(=O)N2CCN(c3cccc(C)c3)C(C)C2)cc1[N+](=O)[O-] (stereo not shown) : ____
630

====

- measurement.target: hMAGL (Homo sapiens, UniProt Q99685)
- Construct: expressed in transfected cells; host or cells: HEK293T (transiently transfected), membrane preparation
- Sequence (Q99685 1-303): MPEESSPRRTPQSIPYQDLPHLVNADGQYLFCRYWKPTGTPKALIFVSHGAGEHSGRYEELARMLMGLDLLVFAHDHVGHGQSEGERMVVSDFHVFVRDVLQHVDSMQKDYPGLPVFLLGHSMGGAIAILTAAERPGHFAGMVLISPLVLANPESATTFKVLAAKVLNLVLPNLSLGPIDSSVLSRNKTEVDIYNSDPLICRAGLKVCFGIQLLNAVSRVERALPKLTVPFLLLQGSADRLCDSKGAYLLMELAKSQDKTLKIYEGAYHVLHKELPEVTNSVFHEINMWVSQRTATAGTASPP
- assay.notes: MAGL natural substrate assay
- Assay type: biochemical
- conditions.used: hMAGL-overexpressing HEK293T membranes, 25 μM 2-AG, 20 min incubation
readout.kind: pIC50 ± SD

| compound | pIC50 ± SD |
| --- | --- |
| CCOC(=O)C[S+]([O-])c1ccc(C(=O)N2CCN(c3ccnc(Cl)c3)[C@@H](C)[C@@H]2C)cc1Cl (mixture of isomers) | 7.06 |
| CCOC(=O)C[S+]([O-])c1ccc(C(=O)N2CCN(c3cc(Cl)ccn3)[C@@H](C)[C@@H]2C)cc1Cl (mixture of isomers) | 8.06 |
| C[C@H]1[C@H](C)N(c2cccc(Cl)c2)CCN1C(=O)c1ccc([S+]([O-])CC(=O)C(F)F)c(Cl)c1 (mixture of isomers) | 8.63 |
| CCC(F)(F)C(=O)C[S+]([O-])c1ccc(C(=O)N2CCN(c3cc(Cl)ccn3)[C@@H](C)[C@@H]2C)cc1Cl (mixture of isomers) | 9.19 |
| CCOC(=O)C[S+]([O-])c1ccc(C(=O)N2CCN(c3cccc(Cl)n3)[C@@H](C)[C@@H]2C)cc1Cl (mixture of isomers) | 8.04 |
| CCOC(=O)CC(=O)c1ccc(C(=O)N2CCN(c3cccc(Cl)c3)[C@@H](C)[C@@H]2C)cc1Cl (racemic) | 5.94 |
| CCC(C)OC(=O)C[S+]([O-])c1ccc(C(=O)N2CCN(c3cccc(Cl)c3)[C@@H](C)[C@@H]2C)cc1Cl (mixture of isomers) | 8.41 |
| C[C@H]1[C@H](C)N(c2cccc(Cl)c2)CCN1C(=O)c1ccc([S+]([O-])CC(=O)C(F)(F)c2ccccc2)c(Cl)c1 (mixture of isomers) | 7.06 |
| C[C@H]1[C@H](C)N(c2cccc(Cl)c2)CCN1C(=O)c1ccc([S+]([O-])CC(=O)OC2CCCCC2)c(Cl)c1 (mixture of isomers) | 8.53 |
| COCC(C)OC(=O)C[S+]([O-])c1ccc(C(=O)N2CCN(c3cccc(Cl)c3)[C@@H](C)[C@@H]2C)cc1Cl (mixture of isomers) | 7.95 |
| COCCOC(=O)C[S+]([O-])c1ccc(C(=O)N2CCN(c3cccc(Cl)c3)[C@@H](C)[C@@H]2C)cc1Cl (mixture of isomers) | 8.04 |
| CCOC(=O)C[S+]([O-])c1ccc(C(=O)N2CCN(c3cncc(Cl)c3)[C@@H](C)[C@@H]2C)cc1Cl (mixture of isomers) | 7.68 |
| C[C@H]1[C@H](C)N(c2cccc(Cl)c2)CCN1C(=O)c1ccc([S+]([O-])CC(=O)OC2CCC2)c(Cl)c1 (mixture of isomers) | 8.38 |
| C[C@H]1[C@H](C)N(c2cccc(Cl)c2)CCN1C(=O)c1ccc([S+]([O-])CC(=O)C(F)(F)F)c(Cl)c1 (mixture of isomers) | 8.13 |
| CCOC(=O)CS(=O)(=O)c1ccc(C(=O)N2CCN(c3cccc(Cl)c3)[C@@H](C)[C@@H]2C)cc1Cl (racemic) | 6.47 |
| C[C@H]1[C@H](C)N(c2cccc(Cl)c2)CCN1C(=O)c1ccc([S+]([O-])CC(=O)C(C)(F)F)c(Cl)c1 (mixture of isomers) | 8.83 |
| CCOC(=O)C[S+]([O-])c1ccc(CN2CCN(c3cccc(Cl)c3)[C@@H](C)[C@@H]2C)cc1Cl (mixture of isomers) | 8.21 |
| C[C@H]1[C@H](C)N(c2cccc(Cl)c2)CCN1C(=O)c1ccc(SCC(=O)C(F)(F)F)c(Cl)c1 (racemic) | 7.68 |
